The reported numbers originate from patent US20260070929A1.

System: AGS gastric carcinoma cells [heterozygous G12D]
TEST_METHOD_NOTES: Cancer cell line proliferation (CellTiter-Glo), AGS
Format: cell-based
MEASUREMENT_PARAMETERS: Homo sapiens, 72 hr treatment, read-out: AGS CTG (EC50)
Consider the following molecules; for each one, report its EC50.

{"MOLECULE": "C#Cc1c(F)ccc2cc(O)cc(-c3ncc4c(N5CC6CCC(C5)N6)nc(OCC5(CN6CCC(C7CCN(Cc8ccc9c(c8)CN(C(=O)c8cc(C(C)C)c(OC)cc8OC)C9)CC7)CC6)CC5)nc4c3F)c12", "QUANTITY_KIND": "EC50", "OBS_VALUE": "100 to 1000 nM"}
{"MOLECULE": "C#Cc1c(F)ccc2cc(O)cc(-c3ncc4c(N5CC6CCC(C5)N6)nc(OCC5CN(CC6(CNc7ccc8c(c7)CN(C(=O)c7cc(C(C)C)c(O)cc7O)C8)CC6)C5)nc4c3F)c12", "QUANTITY_KIND": "EC50", "OBS_VALUE": "100 to 1000 nM"}
{"MOLECULE": "C#Cc1cccc2cc(O)cc(-c3ncc4c(N5CC6CCC(C5)N6)nc(OCC5(CN6CCN(Cc7ccc8c(c7)CN(C(=O)c7cc(C(C)C)c(O)cc7O)C8)CC6)CC5)nc4c3F)c12", "QUANTITY_KIND": "EC50", "OBS_VALUE": "< 100 nM"}
{"MOLECULE": "C#Cc1cccc2cc(O)cc(-c3ncc4c(N5CC6CNC(C6)C5)nc(OCC5(CN6CCN(CC7CCN(Cc8ccc(-n9c(C(=O)NCC(F)(F)F)nnc9-c9cc(C(C)C)c(O)cc9O)cc8)CC7)CC6)CC5)nc4c3F)c12 (centres unmarked)", "QUANTITY_KIND": "EC50", "OBS_VALUE": "100 to 1000 nM"}

Turning to the following molecule.
Measured EC50 for this entry C#Cc1cccc2cc(O)cc(-c3ncc4c(N5CC6CNC(C6)C5)nc(OCC5(CN6CCN(CC7CCN(Cc8ccc(-n9c(C(=O)NCC)nnc9-c9cc(C(C)C)c(O)cc9O)cc8)CC7)CC6)CC5)nc4c3F)c12 (centres unmarked) on AGS gastric carcinoma cells [heterozygous G12D]: < 100 nM
